This collection of values is drawn from patent US11446298B2.

# Assay target: EP2 (Homo sapiens)
# Construct: SF295 glioblastoma cells express high endogenous EP2 and no EP4
# Assay explanation: hEP2 cAMP Assay (SF295 glioblastoma cells, HTRF cAMP, PGE2 75 nM)
# Condition summary: antagonistic activity, PGE2 75 nM (EC80)
pIC50: −log10 of the molar value.
Documented pIC50 across a set of molecules
Quantity kind: pIC50

                                   molecule  value_reported
0  CCOc1cc(-c2cc(NCCc3cccc4c3ccn4C)ncn2)sc1C(=O)O [Example 25]            7.82
1  COc1ccc2cccc(CCNc3cc(-c4cc(C(F)(F)F)c(C(=O)O)s4)ncn3)c2n1 [Example 150]            6.28
2  O=C(O)c1ccc(-c2cc(NCCc3ccc(F)c4ccccc34)ncn2)cc1OC1CCC1 [Example 20]            6.70
3  CCOc1cc(-c2cc(NCCc3c(OC)ccc4ccccc34)ncn2)ccc1CC(=O)O [Example 160]            7.10

----------
# Assay target: EP2 (Homo sapiens, UniProt P43116)
# Construct: SF295 glioblastoma cells express high endogenous EP2 and no EP4
# Sequence (P43116 whole entry): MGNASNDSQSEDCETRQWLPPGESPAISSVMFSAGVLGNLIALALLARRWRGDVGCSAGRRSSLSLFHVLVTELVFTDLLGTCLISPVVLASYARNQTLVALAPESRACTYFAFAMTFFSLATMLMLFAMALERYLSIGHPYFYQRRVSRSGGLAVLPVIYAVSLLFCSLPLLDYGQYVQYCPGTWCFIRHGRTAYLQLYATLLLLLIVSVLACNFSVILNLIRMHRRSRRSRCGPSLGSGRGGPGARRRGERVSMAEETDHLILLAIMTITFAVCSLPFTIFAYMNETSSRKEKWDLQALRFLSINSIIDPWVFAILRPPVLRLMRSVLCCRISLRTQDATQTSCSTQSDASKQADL
# Assay explanation: hEP2 cAMP Assay (SF295 glioblastoma cells, HTRF cAMP, PGE2 75 nM)
# Condition summary: antagonistic activity, PGE2 75 nM (EC80)
// NB: equality with 200 nM counts as Criterion not met; only IC50 strictly below is Criterion met

>>> print(df.to_string())
                              line_notation        label_class
0  CCOc1nc(-c2cc(NCCc3c(OC)ccc4ccccc34)ncn2)sc1C(=O)O      Criterion met
1  CCOc1cc(-c2cc(NCCc3ccc(C)c4ccccc34)ncn2)ccc1C(=O)O      Criterion met
2  CCOc1nc(-c2cc(NCCc3c(OC)ccc4ccccc34)ncn2)sc1-c1noc(=O)[nH]1      Criterion met
3  COc1ccc2ncccc2c1CCNc1cc(-c2ccc(-c3c(O)c(=O)c3=O)cc2)ncn1  Criterion not met
4  CCOc1cc(-c2cc(NCCc3cccc4c3ccn4C)ncn2)ccc1OCC(=O)O      Criterion met
5  CCNC(=O)Nc1ccc(-c2cc(NCCc3c(OC)ccc4ncccc34)ncn2)cc1OC  Criterion not met
6  CCOc1cc(-c2cc(NCCc3c(OC)ccc4ccccc34)ncn2)ccc1OCC(=O)O      Criterion met
7  CCOc1cc(-c2cc(NCCc3cccc4sccc34)ncn2)ccc1OCC(=O)O  Criterion not met

----------
# Assay target: EP2 (Homo sapiens, UniProt P43116)
# Construct: SF295 glioblastoma cells express high endogenous EP2 and no EP4
# Assay explanation: hEP2 cAMP Assay (SF295 glioblastoma cells, HTRF cAMP, PGE2 75 nM)
# Condition summary: antagonistic activity, PGE2 75 nM (EC80)
# Description: The antagonistic activities of the compounds of formula (I) on the EP2 and EP4 receptors are also determined in accordance with the following experimental method. Human tumor cell lines expressing endogenously either EP4 or EP2 are used and cAMP accumulation in cells upon PGE2 stimulation is monitored. […] The obtained Delta F (fluorescence) values (665 nm/620 nM) are converted into % cAMP values using the measurements of the cAMP calibrator provided in the kit. […]
Quantity kind: IC50 (nM)

>>> print(df.to_string())
                              line_notation  value_reported
0  Cc1ccc2c(cnn2C)c1CCNc1cc(-c2ccc3ccncc3c2)ncn1              95
1  CCOc1cc(-c2cc(NCCc3cccc4ccsc34)ncn2)ccc1C(=O)O             129
2  O=C(O)c1sc(-c2cc(NCCc3cccc4cccnc34)ncn2)cc1C(F)(F)F             987
3  CCOc1cc(-c2cc(NCCc3cccc4ccsc34)ncn2)sc1C(=O)O              79
4  COc1ccc2ccccc2c1CCNc1cc(-c2ccc(C(=O)O)c(OCCO)c2)ncn1              16
5  CCOc1cc(-c2cc(NCCc3c(OC)ccc4ncccc34)ncn2)ccc1NCC(=O)O             155
6  CCOc1cc(-c2cc(NCCc3c(OC)ccc4ncccc34)ncn2)sc1-c1nnn[nH]1              81
7  CCOc1cc(-c2cc(NCCc3ccc(C)c4ccccc34)ncn2)ccc1OCC(=O)O             259
